Value source: ChEMBL document CHEMBL5346902

Target: CREB-binding protein (Homo sapiens, UniProt Q92793)
Sequence (Q92793 whole entry): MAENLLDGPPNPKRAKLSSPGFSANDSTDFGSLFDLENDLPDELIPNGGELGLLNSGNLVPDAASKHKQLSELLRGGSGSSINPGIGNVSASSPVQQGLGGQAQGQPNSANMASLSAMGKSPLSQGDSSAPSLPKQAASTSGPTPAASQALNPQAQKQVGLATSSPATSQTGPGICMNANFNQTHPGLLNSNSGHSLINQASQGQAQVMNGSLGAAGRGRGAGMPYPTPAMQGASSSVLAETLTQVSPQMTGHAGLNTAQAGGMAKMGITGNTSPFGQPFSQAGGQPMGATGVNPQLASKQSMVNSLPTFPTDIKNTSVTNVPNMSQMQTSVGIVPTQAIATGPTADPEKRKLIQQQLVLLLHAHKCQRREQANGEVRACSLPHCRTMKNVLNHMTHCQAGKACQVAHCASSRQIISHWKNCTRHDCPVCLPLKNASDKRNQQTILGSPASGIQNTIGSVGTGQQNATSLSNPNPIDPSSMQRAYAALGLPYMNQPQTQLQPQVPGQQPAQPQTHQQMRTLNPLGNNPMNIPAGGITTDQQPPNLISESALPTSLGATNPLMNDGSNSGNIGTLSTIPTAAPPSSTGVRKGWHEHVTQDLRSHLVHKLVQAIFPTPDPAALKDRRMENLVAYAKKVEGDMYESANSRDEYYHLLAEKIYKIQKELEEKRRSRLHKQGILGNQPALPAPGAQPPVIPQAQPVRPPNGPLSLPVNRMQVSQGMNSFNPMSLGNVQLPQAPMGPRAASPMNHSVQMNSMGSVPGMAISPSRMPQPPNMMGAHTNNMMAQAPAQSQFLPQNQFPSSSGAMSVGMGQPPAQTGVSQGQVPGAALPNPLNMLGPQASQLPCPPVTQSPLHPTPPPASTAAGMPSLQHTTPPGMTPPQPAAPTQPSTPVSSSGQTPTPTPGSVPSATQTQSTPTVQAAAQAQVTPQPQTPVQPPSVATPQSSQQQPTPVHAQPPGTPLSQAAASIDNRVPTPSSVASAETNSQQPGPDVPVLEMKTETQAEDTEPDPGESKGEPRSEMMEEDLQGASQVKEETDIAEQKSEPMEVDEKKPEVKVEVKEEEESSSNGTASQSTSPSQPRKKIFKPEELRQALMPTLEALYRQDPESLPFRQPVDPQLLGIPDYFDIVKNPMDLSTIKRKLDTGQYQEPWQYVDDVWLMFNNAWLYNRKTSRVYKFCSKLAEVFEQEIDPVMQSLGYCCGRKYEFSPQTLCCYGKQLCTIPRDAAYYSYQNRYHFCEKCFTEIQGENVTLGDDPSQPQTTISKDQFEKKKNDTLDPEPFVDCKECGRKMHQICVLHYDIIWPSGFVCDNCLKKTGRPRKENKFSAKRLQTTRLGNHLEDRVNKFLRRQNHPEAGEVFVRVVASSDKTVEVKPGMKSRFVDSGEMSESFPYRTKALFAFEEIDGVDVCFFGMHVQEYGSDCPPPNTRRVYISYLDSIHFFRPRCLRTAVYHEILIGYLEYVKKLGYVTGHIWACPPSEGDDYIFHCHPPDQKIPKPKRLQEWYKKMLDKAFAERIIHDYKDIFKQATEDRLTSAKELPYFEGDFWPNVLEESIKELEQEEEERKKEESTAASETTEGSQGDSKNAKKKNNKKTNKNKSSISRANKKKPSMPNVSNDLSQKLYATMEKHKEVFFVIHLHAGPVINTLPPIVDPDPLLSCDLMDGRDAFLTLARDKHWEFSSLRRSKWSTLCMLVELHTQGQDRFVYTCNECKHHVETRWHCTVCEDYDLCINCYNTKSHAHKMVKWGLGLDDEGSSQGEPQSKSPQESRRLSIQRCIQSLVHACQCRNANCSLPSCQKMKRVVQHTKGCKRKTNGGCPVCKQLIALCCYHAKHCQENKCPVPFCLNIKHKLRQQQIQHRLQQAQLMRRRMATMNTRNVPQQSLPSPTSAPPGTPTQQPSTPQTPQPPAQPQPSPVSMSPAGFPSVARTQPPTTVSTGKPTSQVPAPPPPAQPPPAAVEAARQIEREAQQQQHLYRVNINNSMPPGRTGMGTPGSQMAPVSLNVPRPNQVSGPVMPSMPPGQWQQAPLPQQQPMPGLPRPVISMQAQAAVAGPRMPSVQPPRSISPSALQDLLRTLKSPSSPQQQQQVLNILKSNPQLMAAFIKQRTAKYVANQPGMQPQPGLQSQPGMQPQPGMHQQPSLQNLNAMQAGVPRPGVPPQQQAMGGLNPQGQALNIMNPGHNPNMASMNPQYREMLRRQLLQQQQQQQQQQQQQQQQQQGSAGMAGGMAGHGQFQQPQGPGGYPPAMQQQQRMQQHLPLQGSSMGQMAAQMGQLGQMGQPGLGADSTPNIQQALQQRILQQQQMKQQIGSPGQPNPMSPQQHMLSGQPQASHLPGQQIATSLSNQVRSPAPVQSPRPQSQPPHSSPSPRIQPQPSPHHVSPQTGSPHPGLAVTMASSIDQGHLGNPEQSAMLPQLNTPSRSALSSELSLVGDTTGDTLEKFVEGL
Assay: Binding affinity to CBP (unknown origin) assessed as dissociation constant
MEASURED PROPERTY: Kd (µM)

{"columns": ["SMILES REPR", "STUDY SYSTEM", "RECORDED NUMBER"],
 "data": [
  ["CNC(=O)c1[nH]c(C)c(C(C)=O)c1C", "CREB-binding protein (Homo sapiens, UniProt Q92793)", 49]
]}

* * *

Molecular target: Bromodomain-containing protein 4 (Homo sapiens, UniProt O60885)
Test: Binding affinity to BRD4 bromo domain 1 (unknown origin) assessed as dissociation constant

{"columns": ["SMILES REPR", "UNIT NAME", "Kd"],
 "data": [
  ["CNC(=O)c1[nH]c(C)c(C(C)=O)c1C", "µM", 35]
]}

* * *

Property: pKd; scope: individual molecules
Experiment: Binding affinity to BRPF1B (unknown origin) assessed as dissociation constant by ITC analysis
Design: species or system Homo sapiens
pKd: −log10 of the molar value.
MEASURED PROPERTY: pKd

{"columns": ["SMILES REPR", "RECORDED NUMBER"],
 "data": [
  ["Cc1[nH]c(-c2cccc(N)c2)c2c1C(=O)CCCC2", 6.35],
  ["CNC(=O)c1[nH]c(C)c2c1CCCCC2=O", 5.29]
]}
